target: PRMT5•MTA (biotinylated PRMT5-MEP50) (Homo sapiens (Human), UniProt O14744); test: SPR binding assay, MTA running buffer; conditions: 20 μM MTA running buffer
Sequence (O14744 whole entry): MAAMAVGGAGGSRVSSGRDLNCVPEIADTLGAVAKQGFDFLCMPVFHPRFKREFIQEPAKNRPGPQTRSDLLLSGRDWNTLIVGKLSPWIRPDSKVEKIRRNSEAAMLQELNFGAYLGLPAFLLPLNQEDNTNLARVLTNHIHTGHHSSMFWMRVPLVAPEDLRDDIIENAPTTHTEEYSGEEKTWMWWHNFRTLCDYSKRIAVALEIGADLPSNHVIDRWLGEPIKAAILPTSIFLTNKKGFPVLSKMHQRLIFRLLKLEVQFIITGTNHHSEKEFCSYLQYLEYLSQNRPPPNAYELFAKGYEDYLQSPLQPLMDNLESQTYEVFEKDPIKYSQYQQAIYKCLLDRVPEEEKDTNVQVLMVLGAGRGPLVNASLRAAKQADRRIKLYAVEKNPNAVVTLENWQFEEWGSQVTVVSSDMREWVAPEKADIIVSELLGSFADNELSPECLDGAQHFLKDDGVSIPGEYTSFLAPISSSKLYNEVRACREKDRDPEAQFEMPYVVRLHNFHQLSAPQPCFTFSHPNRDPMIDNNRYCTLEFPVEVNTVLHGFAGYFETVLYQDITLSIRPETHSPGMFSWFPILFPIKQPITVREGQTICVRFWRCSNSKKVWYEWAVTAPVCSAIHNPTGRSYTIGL
Sequence (Q9BQA1 whole entry partner): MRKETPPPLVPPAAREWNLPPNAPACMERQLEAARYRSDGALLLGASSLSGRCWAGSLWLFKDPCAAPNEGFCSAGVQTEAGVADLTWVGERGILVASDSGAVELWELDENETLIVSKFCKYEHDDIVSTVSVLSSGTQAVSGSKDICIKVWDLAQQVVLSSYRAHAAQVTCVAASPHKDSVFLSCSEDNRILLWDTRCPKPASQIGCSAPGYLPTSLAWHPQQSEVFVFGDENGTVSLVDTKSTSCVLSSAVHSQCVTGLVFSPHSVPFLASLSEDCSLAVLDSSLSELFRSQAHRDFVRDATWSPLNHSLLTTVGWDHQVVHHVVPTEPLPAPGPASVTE
pKd: −log10 of the molar value.
Rule: pKd under 8 gives N, otherwise Y.

Q. Say whether Cc1cc(N)nc2ccc(-c3ccccc3F)nc12 shows pKd of 8 or more.
A. N

Q. Say whether Cc1cc(N)nc2cc(CNC(=O)c3cc(NC4CC4)ncn3)cnc12 shows pKd of 8 or more.
A. N

Q. Say whether Cc1cc2[nH]c(N3CC(=O)N(C)C3=O)cc2nc1N shows pKd of 8 or more.
A. N

Q. Say whether Nc1nc2cc[nH]c2cc1C1CC1 shows pKd of 8 or more.
A. N

Q. Say whether CC(=O)N(Cc1cnc2c(C)cc(N)nc2c1)c1ccc2ccccc2c1C#N shows pKd of 8 or more.
A. Y

Q. Say whether Cc1cc(N)nc2cc(CNC(=O)c3cc(O)ncn3)cnc12 shows pKd of 8 or more.
A. N

Q. Say whether CC(=O)N(Cc1cc2nc(N)c(C)cc2[nH]1)c1ccc2ccccc2c1C#N shows pKd of 8 or more.
A. Y

Q. Say whether Cc1cc(N)nc2cc(Cc3ccccc3Cl)cnc12 shows pKd of 8 or more.
A. N
